Reported signal is given for each of the following binders.
ASSAY_TARGET: T1, integrin αVβ5 (UniProt P06756 31-992; P18084 24-719)
T1 construct: Coated on the ELISA plate
T1 sequence (P06756 31-992, chain 1 of 2): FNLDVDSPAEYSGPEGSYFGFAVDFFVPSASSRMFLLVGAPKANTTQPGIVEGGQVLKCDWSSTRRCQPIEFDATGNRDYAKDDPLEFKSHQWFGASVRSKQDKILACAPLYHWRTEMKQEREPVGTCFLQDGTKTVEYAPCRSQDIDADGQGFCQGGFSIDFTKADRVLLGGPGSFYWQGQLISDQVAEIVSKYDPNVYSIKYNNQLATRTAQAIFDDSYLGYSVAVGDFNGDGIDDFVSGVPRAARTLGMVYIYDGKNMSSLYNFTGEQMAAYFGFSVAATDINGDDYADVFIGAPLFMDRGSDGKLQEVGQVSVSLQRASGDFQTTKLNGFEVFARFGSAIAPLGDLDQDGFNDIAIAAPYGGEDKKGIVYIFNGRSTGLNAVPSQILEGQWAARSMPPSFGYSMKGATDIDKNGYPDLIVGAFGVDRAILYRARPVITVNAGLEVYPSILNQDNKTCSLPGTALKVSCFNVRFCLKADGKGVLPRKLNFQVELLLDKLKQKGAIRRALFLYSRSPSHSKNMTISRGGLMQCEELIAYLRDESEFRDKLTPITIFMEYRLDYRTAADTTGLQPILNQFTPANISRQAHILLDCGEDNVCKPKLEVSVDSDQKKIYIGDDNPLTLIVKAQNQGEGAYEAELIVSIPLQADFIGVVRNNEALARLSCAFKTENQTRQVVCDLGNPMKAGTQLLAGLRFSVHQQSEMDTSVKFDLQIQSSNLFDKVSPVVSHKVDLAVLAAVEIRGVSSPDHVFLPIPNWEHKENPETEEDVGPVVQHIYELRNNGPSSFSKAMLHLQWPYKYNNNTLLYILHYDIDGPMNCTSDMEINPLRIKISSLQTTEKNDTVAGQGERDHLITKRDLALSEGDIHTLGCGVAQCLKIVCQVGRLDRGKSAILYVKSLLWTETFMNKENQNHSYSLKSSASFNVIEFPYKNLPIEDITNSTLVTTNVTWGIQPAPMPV
T1 sequence (P18084 24-719, chain 2 of 2): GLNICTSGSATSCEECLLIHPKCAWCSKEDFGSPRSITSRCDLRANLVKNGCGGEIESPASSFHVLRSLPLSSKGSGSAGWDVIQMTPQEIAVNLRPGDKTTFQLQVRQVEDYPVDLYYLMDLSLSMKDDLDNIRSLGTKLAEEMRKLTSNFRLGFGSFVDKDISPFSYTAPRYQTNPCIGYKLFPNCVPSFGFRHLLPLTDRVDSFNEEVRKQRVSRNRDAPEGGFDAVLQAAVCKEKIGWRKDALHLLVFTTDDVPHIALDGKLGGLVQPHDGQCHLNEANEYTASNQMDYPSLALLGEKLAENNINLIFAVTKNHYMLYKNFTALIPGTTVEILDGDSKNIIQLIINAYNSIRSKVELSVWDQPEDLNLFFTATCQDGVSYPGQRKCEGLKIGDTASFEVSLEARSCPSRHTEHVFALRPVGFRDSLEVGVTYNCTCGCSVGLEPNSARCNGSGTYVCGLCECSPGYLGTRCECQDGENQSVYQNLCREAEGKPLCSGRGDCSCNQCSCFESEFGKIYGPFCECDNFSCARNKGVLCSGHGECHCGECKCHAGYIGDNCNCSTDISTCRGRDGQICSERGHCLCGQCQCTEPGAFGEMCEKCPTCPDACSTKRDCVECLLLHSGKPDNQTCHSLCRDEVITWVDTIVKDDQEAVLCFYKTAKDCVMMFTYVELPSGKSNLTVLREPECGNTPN
ASSAY_SUMMARY: ELISA, integrin coated, anti-MICA-HRP
Please state the figure in OD; there is no need to write the unit.

| BINDER | ENDPOINT_LABEL | ASSAY_VALUE |
| --- | --- | --- |
| soluble MICA generated by pKK44 (extended loop 3.2sp in loop 1) (designed binder) HHHHHHEPHSLRYNLTVLSWDGSVQSGFLTEVHLDGQPFLRCDRQKCRAKPQGQWAEDVLGNKTWDRETRDLTGNGKDLRMTLAHIKDQKEGLHSLQEIRVCEIHEDNSTRSSQHFYYDGELFLSQNLETEEWTMPQSSRAQTLAMNVRNFLKEDAMKTKTHYHAMHADCLQELRRYLKSGVVLRRTVPPMVNVTSGGSGGGSTSRGDHPRTQSGGSGGGVTCRASGFYPWNITLSWRQDGVSLSHDTQQWGDVLPDGNGTYQTWVATRICQGEEQRFTCYMEHSGNHSTHPVPSGK | signal | 0.46 |

What the record says about soluble MICA generated by pKK50 (extended loop 5.1sp in loop 3) (designed binder) EPHSLRYNLTVLSWDGSVQSGFLTEVHLDGQPFLRCDRQKCRAKPQGQWAEDVLGNKTWDRETRDLTGNGKDLRMTLAHIKDQKEGLHSLQEIRVCEIHEDNSTRSSQHFYYDGELFLSQNLETKEWTMPQSSRAQTLAMNVRNFLKEDAMKTKTHYHAMHADCLQELRRYLKSGVVLRRTVPPMVNVTRSEASEGNITVTCRASGFYPWNITLSWRQDGVSLSHDTQQWGDVLPDGNGTYQTWVATRISGGSGGGSVTRGDTFTQSSGGSGGGCYMEHSGNHSTHPVPSGK : signal is 0.721
